A collection of compounds and their measured solubility, 1st fluid for dissolution test
- assay name: Solubility measurement, Japanese Pharmacopoeia Dissolution test
- Format: physicochemical
- recorded conditions: Japanese Pharmacopoeia 1st fluid for dissolution test, crystals
Counter-ions that a name gives are not always drawn.

input: Any idea what solubility, 1st fluid for dissolution test was measured for Cc1cc(Nc2nc(CC3(C(=O)O)CCN(C(=O)c4cccc(Cl)c4Cl)CC3)ccc2F)n[nH]1 [Sodium salt] ?
output: >1000 µg/mL

input: Consider next the compound Cc1cc(Nc2nc(CC3(C(=O)O)CCN(C(=O)c4cccc(Cl)c4Cl)CC3)ccc2F)n[nH]1 [Hydrochloride salt] in the same way.
output: >1000 µg/mL

input: Please do the same for Cc1cc(Nc2nc(CC3(C(=O)O)CCN(C(=O)c4cccc(Cl)c4Cl)CC3)ccc2F)n[nH]1 [Potassium salt] as well.
output: >1000 µg/mL
